Values were extracted from patent US6352982B1.

# Assayed System: human somatostatin receptor SSTR2 (Homo sapiens, UniProt P30874)
# Sequence (P30874 whole entry): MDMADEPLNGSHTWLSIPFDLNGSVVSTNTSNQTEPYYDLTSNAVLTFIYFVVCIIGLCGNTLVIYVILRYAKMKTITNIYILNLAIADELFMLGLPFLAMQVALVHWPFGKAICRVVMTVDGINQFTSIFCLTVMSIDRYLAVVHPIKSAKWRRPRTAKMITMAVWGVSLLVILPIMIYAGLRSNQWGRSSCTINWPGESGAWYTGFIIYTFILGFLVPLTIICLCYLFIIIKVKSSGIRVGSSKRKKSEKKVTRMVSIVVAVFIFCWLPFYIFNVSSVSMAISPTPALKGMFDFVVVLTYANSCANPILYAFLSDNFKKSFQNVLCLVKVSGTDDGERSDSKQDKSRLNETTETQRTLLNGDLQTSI
# Procedure Summary: Inhibition of forskolin-stimulated accumulation of cAMP in receptor expression CHO cells
# Condition Set: forskolin 10 μM, 37° C. for 30 minutes, read-out: Inhibitory effect on forskolin-stimulated accumulation of cAMP (ED50 value) SSTR2
pEC50: −log10 of the molar value.
Readout: pEC50

* NCc1cccc(C2OC(CC(=O)NCc3ccccc3F)C(=O)N(Cc3ccc(O)cc3)c3ccc(Cl)cc32)c1 (centres unmarked) | 6.70
* NCc1cccc(C2OC(CC(=O)NCc3ccccc3F)C(=O)N(Cc3ccc(-c4ccccc4)cc3)c3ccc(Cl)cc32)c1 (centres unmarked) | 6.52

====

Listed here are molecules together with their documented pEC50.
# Assayed System: human somatostatin receptor SSTR4 (Homo sapiens, UniProt P31391)
# Sequence (P31391 whole entry): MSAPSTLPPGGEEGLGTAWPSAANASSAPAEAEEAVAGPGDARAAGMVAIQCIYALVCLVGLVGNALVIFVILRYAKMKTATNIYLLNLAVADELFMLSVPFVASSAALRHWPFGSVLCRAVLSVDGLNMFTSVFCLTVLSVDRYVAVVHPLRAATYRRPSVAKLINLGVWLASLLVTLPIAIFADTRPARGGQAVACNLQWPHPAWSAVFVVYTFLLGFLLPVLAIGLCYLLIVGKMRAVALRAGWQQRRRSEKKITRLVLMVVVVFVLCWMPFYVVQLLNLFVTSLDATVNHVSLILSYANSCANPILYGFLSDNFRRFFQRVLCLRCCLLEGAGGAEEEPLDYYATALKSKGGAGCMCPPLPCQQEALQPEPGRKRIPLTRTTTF
# Procedure Summary: Inhibition of forskolin-stimulated accumulation of cAMP in receptor expression CHO cells
# Condition Set: forskolin 10 μM, 37° C. for 30 minutes, read-out: Inhibitory effect on forskolin-stimulated accumulation of cAMP (ED50 value) SSTR4
pEC50: −log10 of the molar value.
Readout: pEC50

• NCc1cccc(C2OC(CC(=O)NCc3ccccc3F)C(=O)N(Cc3ccc(O)cc3)c3ccc(Cl)cc32)c1 (centres unmarked) = 7.00
• NCc1cccc(C2OC(CC(=O)NCc3ccccc3F)C(=O)N(Cc3ccc(-c4ccccc4)cc3)c3ccc(Cl)cc32)c1 (centres unmarked) = 6.70
